Listing: inhibition at 100 µM of selected compounds
Test system: PC-3 prostate cancer cells
Assay: WST1 cell viability assay
Assay type: cell-based, human
Conditions: Homo sapiens, PC-3, 100 μM, PC-3 cells, just before lysis; read-out: % inh WST-1 (100 μM)
MEASURE: inhibition at 100 µM (%)

1) O=C(NC1CCN(c2ccc(Cl)cc2)C1)c1cc(C(F)(F)F)cc(C(F)(F)F)c1 (stereo not shown) :: -1.7
2) COc1ccc(N2CC(NC(=O)c3cc(C(F)(F)F)cc(C(F)(F)F)c3)CC2=O)cc1Cl (stereo not shown) :: 23.9
3) O=C(CONC(=O)c1ccc(Cl)cc1)Nc1cc(C(F)(F)F)cc(C(F)(F)F)c1 :: 96
4) O=C(NCCCNc1ccc(Cl)nc1)c1cc(C(F)(F)F)cc(C(F)(F)F)c1 :: 64.7

Hello, the source for this data is patent US20120252792A1, in case you need it.
